Molecular target: T1, human IL-6 (human, UniProt P05231 30-212)
T1 construct: also called interleukin-6
T1 sequence (P05231 30-212 limits assumed): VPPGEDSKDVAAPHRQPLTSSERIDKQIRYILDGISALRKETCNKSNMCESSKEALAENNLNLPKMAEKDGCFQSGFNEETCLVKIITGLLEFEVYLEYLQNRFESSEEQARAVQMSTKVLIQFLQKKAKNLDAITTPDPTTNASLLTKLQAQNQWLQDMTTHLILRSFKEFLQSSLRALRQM
Experiment: SPR (Biacore T200), purified antibody captured on Protein A, IL-6 flowed over, 37 C
QUANTITY_NAME: Kd (nM)
// units = nM; emit number, no label

Take a look at these entries with their results.
>>> readout_number("anti-IL-6 antibody, heavy chain T63K, G66D / light chain WT (antibody, human IgG1, V domains shown, Derived as m2; Engineered human IgG1) VH: EVQLVESGGGLVQPGGSLRLSCAASGFTFSPFAMSWVRQAPGKGLEWVAKISPGGSWTYYSDKVTDRFTFSLDTSKSTAYLQMNSLRAEDTAVYYCARQLWGYYALDIWGQGTLVTVSS VL: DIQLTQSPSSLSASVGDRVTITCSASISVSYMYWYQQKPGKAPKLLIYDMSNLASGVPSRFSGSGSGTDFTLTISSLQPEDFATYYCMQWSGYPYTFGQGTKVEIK")
0.161
>>> readout_number("anti-IL-6 antibody, heavy chain T63E, G66D / light chain WT (antibody, human IgG1, V domains shown, Derived as m2; Engineered human IgG1) VH: EVQLVESGGGLVQPGGSLRLSCAASGFTFSPFAMSWVRQAPGKGLEWVAKISPGGSWTYYSDEVTDRFTFSLDTSKSTAYLQMNSLRAEDTAVYYCARQLWGYYALDIWGQGTLVTVSS VL: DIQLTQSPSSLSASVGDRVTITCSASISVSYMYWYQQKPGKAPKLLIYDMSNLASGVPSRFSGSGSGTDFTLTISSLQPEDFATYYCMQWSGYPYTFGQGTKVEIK")
0.147

Consider the record given below.
IN: Using known records, supply Kd for anti-IL-6 antibody, heavy chain G66D / light chain WT (antibody, human IgG1, V domains shown, Derived as m2; Engineered human IgG1) VH: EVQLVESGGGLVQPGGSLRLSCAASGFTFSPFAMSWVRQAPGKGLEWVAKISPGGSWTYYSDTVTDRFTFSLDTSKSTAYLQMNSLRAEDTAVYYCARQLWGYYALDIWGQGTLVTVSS VL: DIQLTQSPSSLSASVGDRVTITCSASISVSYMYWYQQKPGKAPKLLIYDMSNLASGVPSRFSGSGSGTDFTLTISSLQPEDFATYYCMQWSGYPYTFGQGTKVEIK
OUT: 0.113
